- experimental details: DNA intercalators displacing acridine orange, dose response, artefact control for KSHV LANA DNA-binding inhibitor project, biochemical, fluorescence polarization, cherry-picked samples, set 2 (AID 504727)
- reported conditions: Acridine orange-DNA displacement; series mostly up to 35 µM
The source made the active and inactive calls.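 Rule for the calls: active = fitted half-maximal concentration AC50 at or below ten times the highest valid tested dose, with signal falling as DNA is displaced (actives reach about 34 µM in these data); inconclusive = flat fit at moderate signal loss, or poor fit quality; inactive = the rest, including signal rising instead of falling.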
Respond only with the outcome that fits, drawn from label 1 = active, label 0 = inactive

Below, 8 compounds whose answers are already recorded.
> print(dat)
                                   compound  discrete.label
1             O=C1C=C(c2ccoc2)N2CCC[C@H]2C1         label 0
2  COc1cc(OC)cc(C(=O)NC2CC3CCC(C2)N3C)c1 (stereo not given)         label 0
3  CCN(CC)C(=S)SC1CCCCN(C(=O)c2ccccc2)C1=O (stereo not given)         label 0
4  COc1cccc2[nH]c(C(=O)NC(C)c3ccccc3)cc12 (stereo not given)         label 0
5  COc1c2c(nc3occc13)C(CCC(C)(C)O)(OC)C(O)CC2 (stereo not given)         label 0
6  CCN(CC)S(=O)(=O)N1CCN(S(=O)(=O)N2CCOCC2)CC1         label 0
7  CCc1ccc[n+](-c2[nH]c(=O)sc2/C=N/NC([S-])=Nc2ccccc2)c1         label 1
8  O=C(O)c1ccc(-n2cccc2/C=C2/SC(=O)N(CC(=O)N3CCCC3)C2=O)cc1         label 0

*Q* // param item: Cc1ccc2c(c1)nnn2C1CCN(C(=O)c2cccs2)CC1 ; yields the recorded call
*A* label 0

*Q* Thanks! And OCCN(CCO)c1nc(N2CCCCC2)c2nc(N(CCO)CCO)nc(N3CCCCC3)c2n1 ?
*A* label 1

*Q* Query CCOc1ccc2noc3c2c1C(=O)c1ccccc1-3 next
*A* label 1
